Listing: Raw Signal of selected compounds
target: Human IP6K1 (Homo sapiens, UniProt Q92551); construct: GST (N, cleaved yes); made in house; host or cells: C43 E. coli, pGEX-6P-2; assay: IP6K1 high-throughput screen of the Sigma LOPAC (ADP-Glo Max, single point); type: biochemical; conditions: LOPAC single-point screen, ADP-Glo Max raw signal per well;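 note: final compound concentration 10µM in 5% DMSO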
Sequence (Q92551 whole entry): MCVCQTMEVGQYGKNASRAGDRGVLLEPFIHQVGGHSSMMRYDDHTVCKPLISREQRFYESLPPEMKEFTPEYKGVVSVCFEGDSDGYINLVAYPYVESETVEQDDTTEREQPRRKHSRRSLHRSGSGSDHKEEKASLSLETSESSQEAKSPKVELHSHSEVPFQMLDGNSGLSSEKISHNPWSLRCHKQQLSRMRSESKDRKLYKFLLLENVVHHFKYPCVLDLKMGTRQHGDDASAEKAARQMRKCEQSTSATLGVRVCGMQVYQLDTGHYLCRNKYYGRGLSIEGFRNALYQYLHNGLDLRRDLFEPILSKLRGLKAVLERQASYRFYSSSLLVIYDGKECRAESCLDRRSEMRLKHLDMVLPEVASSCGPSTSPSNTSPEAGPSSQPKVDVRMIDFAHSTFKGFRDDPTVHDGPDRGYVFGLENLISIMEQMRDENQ
Counter-ions that a name gives are not always drawn.
assay endpoint: Raw Signal

C[C@H]1O[C@@H](n2cc(F)c(=O)[nH]c2=O)[C@H](O)[C@@H]1O
53997
Cl.O=C(Cc1ccc(Cl)c(Cl)c1)N1CCCCC1CN1CCCC1 (stereo not drawn) [BRL 52537 hydrochloride]
55058
CCCCCCCCCCCCCCSCC(=O)O
56618
CNC(=C[N+](=O)[O-])NCCSCc1ccc(CN(C)C)o1 [Ranitidine hydrochloride]
57122
CN[C@@H]1C[C@@H](c2ccc(Cl)c(Cl)c2)c2ccccc21 [Indatraline hydrochloride]
53926
O=c1[nH]c2ccccc2c2ccccc12
55315
COc1ccc2c(c1)c(CC(=O)O)c(C)n2Cc1ccc(F)cc1
54531
N=C(N)NC(CCC(=O)O)C(=O)O (stereo not drawn)
54052
C[N+](C)(C)CCCCCC[N+](C)(C)C [Hexamethonium bromide]
55496

----------
target: Human IP6K1 (Homo sapiens); construct: GST (N, cleaved yes); made in house; host or cells: C43 E. coli, pGEX-6P-2; assay: IP6K1 high-throughput screen of the Sigma LOPAC (ADP-Glo Max, single point); format: biochemical; settings: LOPAC single-point screen, Z-score against plate average and StDev
Counter-ions that a name gives are not always drawn.
assay endpoint: Z-score

Cn1c(=O)c2c(nc(C=Cc3cccc(Cl)c3)n2C)n(C)c1=O
0.2421
CN1CCN(C(=O)OC2c3nccnc3C(=O)N2c2ccc(Cl)cn2)CC1 (stereo not drawn)
0.09368
CC(=N)NCCC[C@H](N)C(=O)O.Cl
-0.05873
CC(C)NP(=O)(NC(C)C)OP(=O)(NC(C)C)NC(C)C [Tetraisopropyl pyrophosphoramide]
0.2439
O=C(Nc1ccc([N+](=O)[O-])cc1Cl)c1cc(Cl)ccc1O [Niclosamide]
-0.08057
Cn1ccc2cc3c(cc21)CCN3C(=O)Nc1cccnc1 [SB 206553 hydrochloride]
0.186
CC(N)Cc1c[nH]c2ccc(O)cc12.O=C(O)/C=C\C(=O)O (stereo not drawn) [alpha-Methyl-5-hydroxytryptamine maleate]
0.02915
CCOC(=O)Nc1ccc(NCc2ccc(F)cc2)nc1N [Flupirtine maleate]
-0.07231
CCN(CC)C(C)C(=O)N1c2ccccc2Sc2ccccc21.Cl (stereo not drawn)
0.007914

----------
molecular target: Human IP6K1 (Homo sapiens); construct: GST (N, cleaved yes); made in house; host or cells: C43 E. coli, pGEX-6P-2; assay: IP6K1 high-throughput screen of the Sigma LOPAC (ADP-Glo Max, single point); assay type: biochemical; details: LOPAC single-point screen, ADP-Glo Max luminescence raw signal per well
Listing: Raw Signal of selected molecules
assay endpoint: Raw Signal

COC(=O)C1=C(C)NC(C)=C([N+](=O)[O-])C1c1ccccc1C(F)(F)F (racemic) [(±)-Bay K 8644]
52853
Cl.NC1CCN(c2cccc(Cl)n2)CC1 [SR 57227A]
53376
O=C(/C=C/c1ccc(O)c(O)c1)OCCc1ccccc1
53915
CC(N)C(O)c1ccc(O)c(O)c1 (single isomer, unassigned; (-)) [(-)-alpha-Methylnorepinephrine]
45337
CCCCCCCCCCCCC/C=C/[C@@H](O)[C@@H](N)CO
64012
NS(=O)(=O)c1cc2c(cc1Cl)N=CNS2(=O)=O [Chlorothiazide]
49210
Cn1c(=O)c2[nH]cnc2n(C)c1=O
53365
Cl.NCC(O)c1cc(O)c(O)cc1F (stereo not drawn) [6-Fluoronorepinephrine hydrochloride]
54023
Br.Cc1cccc(C2CN(C)CCc3c2cc(O)c(O)c3Cl)c1 (stereo not drawn) [SKF 83959 hydrobromide]
52693
